Data provenance: patent US8283322B2

# ASSAY SUMMARY: physchem
# Assay type: physicochemical
# PARTICULARS: aqueous with cosolvent or surfactant or cyclodextrin

SMILES REPRESENTATION | solubility
COC(=O)C1=CO[C@@H](O)[C@@H]2C(CO)=CC[C@H]12 | 74.6 mM

###

# ASSAY SUMMARY: physchem
# Format: physicochemical
# PARTICULARS: pH 9, aqueous buffer

SMILES REPRESENTATION | solubility
COC(=O)C1=CO[C@@H](O)[C@@H]2C(CO)=CC[C@H]12 | 39.6 mM

###

# ASSAY SUMMARY: physchem
# Format: physicochemical
# PARTICULARS: pH 9, aqueous with cosolvent or surfactant or cyclodextrin

SMILES REPRESENTATION | solubility
COC(=O)C1=CO[C@@H](O)[C@@H]2C(CO)=CC[C@H]12 | 63.3 mM
